Biological target: Adenosine receptor A1 (Homo sapiens, UniProt P30542)
Sequence (P30542 whole entry): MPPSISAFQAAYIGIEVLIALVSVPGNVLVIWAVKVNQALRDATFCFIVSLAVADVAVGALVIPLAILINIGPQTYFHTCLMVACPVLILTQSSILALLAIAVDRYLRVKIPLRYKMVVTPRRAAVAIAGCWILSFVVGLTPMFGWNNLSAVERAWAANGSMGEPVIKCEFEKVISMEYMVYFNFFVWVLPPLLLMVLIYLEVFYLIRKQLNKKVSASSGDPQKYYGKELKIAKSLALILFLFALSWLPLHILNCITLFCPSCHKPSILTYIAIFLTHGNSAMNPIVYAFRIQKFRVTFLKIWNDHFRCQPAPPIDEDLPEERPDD
// classify: if (Ki < 6 nM) MET else NOT MET

The examples below pair each entry with its known result.
Exercise: Input Cc1nc2c(=O)n(Cc3ccccc3)nc(C3CCCC3)c2c2cc(-c3ccccc3)nn12 ; condition: Ki strictly below 6 nM. Does it hold?
Key: NOT MET

Exercise: Also CCc1nc2c(=S)n(Cc3ccccc3)nc(C3CCCC3)c2c2cc(-c3ccccc3)nn12 ?
Key: MET

Exercise: And CCc1nc2c(=O)n(Cc3ccccc3)nc(C3CCCC3)c2c2cc(-c3ccccc3)nn12 ?
Key: MET

Exercise: Similarly, S=c1c2ncn3nc(-c4ccccc4)cc3c2c(C2CCCC2)nn1Cc1ccccc1 ?
Key: NOT MET

Query compound follows.
Exercise: Lab log: compare recorded Ki with 6 nM; is it strictly lower for CCc1nc2c(=O)n(Cc3ccccc3)nc(C3CCCCC3)c2c2cc(-c3ccccc3)nn12 ?
Key: NOT MET

---

Target: Adenosine receptor A1 (Homo sapiens)
Assay: Antagonist activity at human recombinant adenosine A1 receptor expressed in CHO cells assessed as inhibition of NECA-induced cAMP accumulation after 15 mins by liquid scintillation spectrometry
measuredQuantity: IC50 (nM)
Give bare numbers, in nM.

Exercise: Lab note: need IC50 for Cc1nc2c(=O)n(Cc3ccccc3)nc(C3CCCC3)c2c2cc(-c3ccccc3)nn12 on Adenosine receptor A1 (Homo sapiens), anyone have it?
Key: 5.1

---

Species: Mus musculus
Assay: Toxicity in Swiss albino mouse assessed as change in motor coordination by measuring number of falls from the rotating rod by rotarod test relative to control
Assay type: organism-based
Conditions: in vivo
measuredQuantity: Activity

Exercise: Recorded Activity of Cc1nc2c(=O)n(Cc3ccccc3)nc(-c3cccs3)c2c2cc(-c3ccccc3)nn12 , please.
Key: Non-toxic

Exercise: How about Cc1nc2c(=S)n(Cc3ccccc3)nc(C3CCCCC3)c2c2cc(-c3ccccc3)nn12 ?
Key: Non-toxic

Exercise: Try this molecule too: CCc1nc2c(=O)n(Cc3ccccc3)nc(-c3ccsc3)c2c2cc(-c3ccccc3)nn12
Key: Non-toxic

---

Give inhibition for every item shown.
Biological target: UniProt:P30542
Sequence (whole entry): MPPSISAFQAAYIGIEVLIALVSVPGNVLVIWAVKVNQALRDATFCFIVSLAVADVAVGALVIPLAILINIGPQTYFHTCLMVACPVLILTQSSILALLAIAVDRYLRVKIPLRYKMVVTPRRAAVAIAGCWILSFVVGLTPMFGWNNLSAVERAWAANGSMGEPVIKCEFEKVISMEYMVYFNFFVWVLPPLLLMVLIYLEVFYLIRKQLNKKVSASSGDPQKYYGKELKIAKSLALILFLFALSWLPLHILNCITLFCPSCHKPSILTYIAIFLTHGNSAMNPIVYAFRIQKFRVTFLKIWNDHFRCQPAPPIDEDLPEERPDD
Assay: Displacement of [3H]DPCPX from human adenosine A1 receptor expressed in CHO cells at 10 uM after 120 mins
Assay type: cell-based
Numbers only, in %.

Exercise: Reported inhibition, compound CCc1nc2c(=O)n(Cc3ccccc3)nc(-c3cccs3)c2c2cc(-c3ccccc3)nn12 : ____
Key: 16

Exercise: And what about the compound Cc1nc2c(=O)n(Cc3ccccc3)nc(-c3ccsc3)c2c2cc(-c3ccccc3)nn12 ?
Key: 8

Exercise: // query: Cc1nc2c(=S)n(Cc3ccccc3)nc(C3CCCC3)c2c2cc(-c3ccccc3)nn12
Key: 51

Exercise: Now the same for O=c1c2ncn3nc(-c4ccccc4)cc3c2c(-c2ccc(Cl)cc2)nn1Cc1ccccc1
Key: 26

Exercise: Please give the result for CCc1nc2c(=O)n(Cc3ccccc3)nc(-c3ccsc3)c2c2cc(-c3ccccc3)nn12 too.
Key: 5

Each compound below has a recorded value; state its inhibition.
1. CCc1nc2c(=O)n(Cc3ccccc3)nc(-c3ccc(Cl)cc3)c2c2cc(-c3ccccc3)nn12
2. O=c1c2ncn3nc(-c4ccccc4)cc3c2c(-c2ccsc2)nn1Cc1ccccc1
3. Cc1nc2c(=S)n(Cc3ccccc3)nc(C3CCCCC3)c2c2cc(-c3ccccc3)nn12

Key:
1. 35
2. 26
3. 33

Field: inhibition. Fill in for each record below.
1. Cc1nc2c(=O)n(Cc3ccccc3)nc(-c3ccc(Cl)cc3)c2c2cc(-c3ccccc3)nn12
2. O=c1c2ncn3nc(-c4ccccc4)cc3c2c(-c2cccs2)nn1Cc1ccccc1
3. Cc1nc2c(=O)n(Cc3ccccc3)nc(-c3cccs3)c2c2cc(-c3ccccc3)nn12

Key:
1: 24; 2: 45; 3: 21
